Reference for the values: paper PMC6204718

measured_target: human glucocorticoid receptor (hGR) (Homo sapiens)
Construct: expressed in transfected cells; host or cells: HEK293T
Sequence (P04150 524-758 limits assumed): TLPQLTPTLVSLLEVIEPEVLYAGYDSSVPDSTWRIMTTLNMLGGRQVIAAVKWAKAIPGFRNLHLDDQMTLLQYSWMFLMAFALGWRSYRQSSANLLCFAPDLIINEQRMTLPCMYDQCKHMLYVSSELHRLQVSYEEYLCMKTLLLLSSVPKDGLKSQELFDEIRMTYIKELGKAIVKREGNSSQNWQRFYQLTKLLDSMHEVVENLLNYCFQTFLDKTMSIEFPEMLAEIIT
method: hGR reporter gene assay (GR-GAL4 chimeric receptor, antagonist mode)
Type: cell-based
quantity_name: IC50 (µM)
Could you give me the number in µM? Just the number is fine.

Exercise: Test system human glucocorticoid receptor (hGR) (Homo sapiens); read-out IC50; what value for CC(=O)OC1CCC2(C)C(=CCC3C2CCC2(C)C(OC(=O)c4ccccc4)CCC32)C1 (stereo not shown) ?
Key: 28.4
